molecular target: Bromodomain-containing protein 4 (Homo sapiens); assay: Binding affinity to BRD4 BD2 (unknown origin) assessed as dissociation constant by BROMOscan analysis
result type: Kd (µM)
Express it in µM; write the number only.

Task: What Kd value was documented for this compound, CCn1c2c(c(=O)[nH]c1=O)C(c1ccc(C)cc1)C(C(=O)OCc1ccccc1)=C(C)N2 (stereo unspecified) ?
Output: 0.065

These data points were gathered from ChEMBL document CHEMBL6177957.
